# TARGET OR TEST SYSTEM: Bifunctional epoxide hydrolase 2 (Rattus norvegicus)
# Sequence (P80299 whole entry): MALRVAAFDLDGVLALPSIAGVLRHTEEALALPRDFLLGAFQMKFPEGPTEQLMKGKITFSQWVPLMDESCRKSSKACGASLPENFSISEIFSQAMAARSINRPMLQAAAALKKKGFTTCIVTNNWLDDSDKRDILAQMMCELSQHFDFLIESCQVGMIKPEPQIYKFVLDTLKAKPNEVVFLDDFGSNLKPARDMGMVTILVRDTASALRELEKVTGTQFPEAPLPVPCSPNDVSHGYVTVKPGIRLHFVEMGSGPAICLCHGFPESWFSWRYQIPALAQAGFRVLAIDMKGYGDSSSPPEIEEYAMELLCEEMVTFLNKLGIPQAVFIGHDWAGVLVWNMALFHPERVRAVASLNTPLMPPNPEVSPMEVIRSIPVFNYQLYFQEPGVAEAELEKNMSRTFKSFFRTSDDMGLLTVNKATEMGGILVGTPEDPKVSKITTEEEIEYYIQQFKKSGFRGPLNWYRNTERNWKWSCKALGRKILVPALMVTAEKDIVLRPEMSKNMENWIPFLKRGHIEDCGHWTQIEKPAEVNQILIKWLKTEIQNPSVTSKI
# EXPERIMENT DESCRIPTION: Inhibition of rat sEH using CMNPC as substrate preincubated for 5 mins followed by substrate addition measured for 10 mins by fluorescent based assay
Reported pIC50 values follow for various compounds
To interpret pIC50, take it as minus log10 of a concentration measured in moles per litre.

INSERT INTO measurements (compound, measured_number) VALUES
  ('S=C(NCCCCCCCCCCNC(=S)NC12CC3CC(CC(C3)C1)C2)NC12CC3CC(CC(C3)C1)C2', 7.35);

State its pIC50: S=C(NCc1ccccc1)NC1C2CC3CC(C2)CC1C3 (stereo unspecified) 7.22

Indicate its recorded pIC50; the compound in question is S=C(NCCCCCCNC(=S)NC12CC3CC(CC(C3)C1)C2)NC12CC3CC(CC(C3)C1)C2 7.21

Identify measured pIC50 associated with S=C(Nc1ccccc1)NC1C2CC3CC(C2)CC1C3 (stereo unspecified) 6.45

Give the reported value of pIC50 for this record: S=C(NCCCCNC(=S)NC12CC3CC(CC(C3)C1)C2)NC12CC3CC(CC(C3)C1)C2 6.91

Output pIC50 of S=C(NCCCCCCCNC(=S)NC12CC3CC(CC(C3)C1)C2)NC12CC3CC(CC(C3)C1)C2 7.45
